target: INF2; assay: pooled miR-30 sensor sort-seq; sequence = guide strand; conditions: shRNA; also: reference of the scale not given here
Listing: sensor-assay potency score (higher = more potent) of selected sequences
measured-parameter: sensor-assay potency score (higher = more potent)

INSERT INTO measurements (construct_sequence, readout_value) VALUES
  ('TTCATGACAATGCTGAAGCGGT', -0.245),
  ('TTTCAATCTCGTGCTTCTCGGG', -0.468),
  ('TTTCAGGATGCTCTCACTCTGG', -0.623),
  ('TAGCTCAAACACCTGCTTCTTC', -0.118),
  ('TTGCATTTTGATTAAACCTTGC', -0.249),
  ('TTCAATCTCGTGCTTCTCGGGA', -0.3),
  ('TCAGTGGTTAGGACATCGCTGG', -0.678),
  ('TGTTGTAGCATCAAGGCCGGGC', -0.171);

---

target: WDR7; experiment: pooled miR-30 sensor sort-seq; sequence = guide strand; details: shRNA
measured-parameter: sensor-assay potency score (higher = more potent)

INSERT INTO results (construct_sequence, assayed_system, readout_value) VALUES
  ('TTTGTCCGTCGTGACATCCTGT', 'WDR7', -0.661),
  ('TAGCTGACCATGTAGAACCTGC', 'WDR7', 0.024),
  ('TTAGACAAACAAGTGATTGATG', 'WDR7', -0.425),
  ('ATATTTGGAACACACAACCAAA', 'WDR7', -1.51),
  ('TTAATTTGCAGTTCTACTGAAA', 'WDR7', -0.417),
  ('TGTCTTTATTGCTTGAACCATC', 'WDR7', -1.06),
  ('TTGTCCGTCGTGACATCCTGTT', 'WDR7', -0.875),
  ('TATTGCTTGAACCATCAGGGAG', 'WDR7', -0.959);

---

target: UNC5D; test: pooled miR-30 sensor sort-seq; sequence = guide strand; conditions: shRNA
As shown below, each of these sequences has a reported sensor-assay potency score (higher = more potent) value.
measured-parameter: sensor-assay potency score (higher = more potent)

INSERT INTO measurements (construct_sequence, readout_value) VALUES
  ('TAGATCAACACGTGTCTCCTAG', 1.06),
  ('TAACCAACCTCTAAGTAGCTGA', 0.224),
  ('TTAGAAAAAACAACTTTCCGTA', 0.101),
  ('TTAAAATGTATCAAACATCTAA', 0.16),
  ('TAAATTAACTTTATGATGCTAC', -0.135),
  ('TACATTTCTATAGAAATCCTAT', -0.569),
  ('TTTGTGATGACACAGTACCCAC', -1.26),
  ('TAGATAACTAGATCAACACGTG', -0.0609);

---

target: C1orf106; assay: pooled miR-30 sensor sort-seq; sequence = guide strand; settings: shRNA
measured-parameter: sensor-assay potency score (higher = more potent)

INSERT INTO measurements (construct_sequence, readout_value) VALUES
  ('TTGTAAGCCGCTCCGATCCTGC', -0.983),
  ('TAAAACATAATCATATCACAGG', -0.615),
  ('TTCTCCTCCAGGCACAGCCGAC', -1.78),
  ('TAGAACCAGAGCACAGAGCGTT', -0.706),
  ('TATTGAAGTATTTAGCACTAAA', -0.989),
  ('TAGCTGAGGACACAGCCACTTG', -1.67),
  ('TAAGCCGCTCCGATCCTGCGGC', -0.585),
  ('TTGAGCTCCTCGGACACGGCGG', -0.833);
